- procedure.text: Acute toxicity in mice after oral administration
- cond: mouse, in vivo, p.os, mortality assessed eight days after administration, read-out: LD50 (with confidence limits)
- Experimental: The acute toxicity was determined in mice after oral administration. The mortality was assessed eight days after the administration and the LD50 (dose causing the death of 50% of the animals treated) was calculated according to the statistical method of Litchfield and Wilcoxon (J.Pharmacol.Exp.Ther. 96, 99, (1949)).
measurement.name: LD50 at 192 h (mg/kg)
Express it in mg/kg; write the number only.

Given the molecule COc1ccc2c(c1)c(CC(=O)O)c(C)n2C(=O)c1ccc(Cl)cc1 [Indomethacin, reference compound] , what is its reported LD50 at 192 h?
23

The measurements presented in this section are drawn from patent US4293549A.
